compounds and their reported selective drug sensitivity score
# Tested on: SEM cells
# protocol_summary: selective drug sensitivity score (sDSS, relative to normal bone marrow) (sDSS (score)); higher = more potent and effective on the cell line relative to normal bone marrow cells;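 note: ALL cell lines in 384-well plates, five doses spanning 10,000-fold, each plate scaled between vehicle and 100 µmol/L benzalkonium chloride controls, sDSS an adapted area-under-curve metric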
# experimental_conditions: 72 h
Lab note: record the figure alone, no unit after it.

// worked examples, selective drug sensitivity score included
Supply recorded selective drug sensitivity score for CN1CCN(C2CCN(C(=O)Nc3cc(Oc4ccc(NC(=O)C5(C(=O)Nc6ccc(F)cc6)CC5)c(F)c4)ccn3)CC2)CC1 [Golvatinib] (top concentration 2500 nM) here.
6.56

Recall and state the measured selective drug sensitivity score for C[C@H]1C=C2C(=O)O[C@H]3CC[C@@H](C1)[C@@]23O [Galiellalactone] (top concentration 25000 nM) .
3.56

Give the reported selective drug sensitivity score for this compound. CN(C)C(=O)c1ccc(S(=O)(=O)c2ccc(NC(=O)[C@@](C)(O)C(F)(F)F)c(Cl)c2)cc1 [AZD7545] (top concentration 10000 nM)
0.6

// fetch selective drug sensitivity score given entry CCN(CCO)CCCOc1ccc2c(Nc3cc(CC(=O)Nc4cccc(F)c4)[nH]n3)ncnc2c1 [AZD1152-HQPA] (top concentration 1000 nM)
15.7

Consider the compound CNC(=O)c1ccc(N2C(=S)N(c3cnc(C#N)c(C(F)(F)F)c3)C(=O)C23CCC3)cc1F [Apalutamide] (top concentration 10000 nM) . State its measured selective drug sensitivity score.
0

Kindly consider the entry below.
Respond only with selective drug sensitivity score recorded for CCN(CC)CCNC(=O)c1c(C)[nH]c(/C=C2\C(=O)Nc3ccc(F)cc32)c1C [Sunitinib] (top concentration 1000 nM)
15.3

----------
The molecules listed here are annotated with their selective drug sensitivity score.
# Tested on: COG-LL-355h
# protocol_summary: selective drug sensitivity score (sDSS, relative to normal bone marrow) (sDSS (score)); higher = more potent and effective on the cell line relative to normal bone marrow cells
# experimental_conditions: 72 h
# respond with the number and nothing more

Worked examples follow.
Given COc1cc(Nc2c(C#N)cnc3cc(OCCCN4CCN(C)CC4)c(OC)cc23)c(Cl)cc1Cl [Bosutinib] (top concentration 10000 nM) , report its selective drug sensitivity score on COG-LL-355h.
1.86

Report the value of selective drug sensitivity score obtained on COG-LL-355h for Cn1cc(-c2ccc(F)c(C(F)(F)F)c2)nc1C1CCN(c2ncnc3[nH]ncc23)CC1 (top concentration 10000 nM) .
-0.14

With those in mind, consider the next molecule.
Report selective drug sensitivity score under test system COG-LL-355h for CC1(C)CCC(c2ccc(Cl)cc2)=C(CN2CCN(c3ccc(C(=O)NS(=O)(=O)c4ccc(N[C@H](CCN5CCOCC5)CSc5ccccc5)c(S(=O)(=O)C(F)(F)F)c4)cc3)CC2)C1 [Navitoclax] (top concentration 10000 nM) .
28.9

----------
Reported selective drug sensitivity score values for the following compounds.
# System: COG-LL-332h
# protocol_summary: selective drug sensitivity score (sDSS, relative to normal bone marrow) (sDSS (score)); higher = more potent and effective on the cell line relative to normal bone marrow cells
# experimental_conditions: 72 h
Just the number, please, no unit attached.

Consider the reported selective drug sensitivity score for these compounds:
State its selective drug sensitivity score for this compound: CC(C)N(CCCNC(=O)Nc1ccc(C(C)(C)C)cc1)C[C@H]1O[C@@H](n2cc(Br)c3c(N)ncnc32)[C@H](O)[C@@H]1O [SGC0946] (top concentration 10000 nM)
0.18

// fetch selective drug sensitivity score given entry O=C1CCC(N2C(=O)c3ccccc3C2=O)C(=O)N1 (stereo unspecified) [Thalidomide] (top concentration 10000 nM)
-0.14

Respond only with selective drug sensitivity score recorded for CC1(C)CCC(CN2CCN(c3ccc(C(=O)NS(=O)(=O)c4ccc(NCC5CCOCC5)c([N+](=O)[O-])c4)c(Oc4cnc5[nH]ccc5c4)c3)CC2)=C(c2ccc(Cl)cc2)C1 [Venetoclax] (top concentration 1000 nM)
-3.3

Input COc1cccc2c1C(=O)c1c(O)c3c(c(O)c1C2=O)C[C@@](O)(C(=O)CO)C[C@@H]3O[C@H]1C[C@H](N)[C@@H](O)[C@H](C)O1 [Epirubicin] (top concentration 1000 nM) , output reported selective drug sensitivity score.
11.3

Please look at this compound and report its selective drug sensitivity score: Cc1ncc(Cl)cc1NCc1ccc(C(=O)N[C@@H](CC2CCCC2)C(=O)NC2CC2)s1 (top concentration 5000 nM)
1.86

Continuing:
Provide only the value of recorded selective drug sensitivity score for CC(=O)O[C@H]1C(=O)[C@@]2(C)[C@H]([C@H](OC(=O)c3ccccc3)[C@]3(O)C[C@H](OC(=O)[C@H](O)[C@@H](NC(=O)c4ccccc4)c4ccccc4)C(C)=C1C3(C)C)[C@]1(OC(C)=O)CO[C@@H]1C[C@@H]2O [Paclitaxel] (top concentration 1000 nM)
20.5

Dear colleague, please send me the reported selective drug sensitivity score for C=CC(=O)Nc1cc(Nc2nccc(-c3cn(C)c4ccccc34)n2)c(OC)cc1N(C)CCN(C)C [Osimertinib] (top concentration 2500 nM) when you can.
-0.32

For the compound CN1CC[C@@H](NC(=O)Nc2ccc(C#N)cc2)C[C@@H]1c1nc2ccccc2[nH]1 [Glasdegib] (top concentration 1000 nM) , give its reported selective drug sensitivity score.
1

Name the recorded selective drug sensitivity score of the compound listed here: CCC1=C[C@@H]2CN(C1)Cc1c([nH]c3ccccc13)[C@@](C(=O)OC)(c1cc3c(cc1OC)N(C)[C@H]1[C@@](O)(C(=O)OC)[C@H](OC(C)=O)[C@]4(CC)C=CCN5CC[C@]31[C@@H]54)C2 [Vinorelbine] (top concentration 10000 nM)
20.5

Determine from records and report selective drug sensitivity score for c1cn2cc(-c3ccc4cn[nH]c4c3)nc(Nc3ccc(N4CCOCC4)cc3)c2n1 [Entospletinib] (top concentration 5000 nM)
-0.64

Find the measured selective drug sensitivity score of CCOc1ccn(-c2ccc(F)cc2)c(=O)c1C(=O)Nc1ccc(Oc2ccnc(N)c2Cl)c(F)c1 (top concentration 2500 nM) and report it.
3.2

Reference for the values: the supplement of paper PMC8967900
